Parameter IC50: see the listing below.
# tgt: fructose-1,6-bisphosphatase (FBPase) (Homo sapiens, UniProt P09467)
# Sequence (P09467 1-338): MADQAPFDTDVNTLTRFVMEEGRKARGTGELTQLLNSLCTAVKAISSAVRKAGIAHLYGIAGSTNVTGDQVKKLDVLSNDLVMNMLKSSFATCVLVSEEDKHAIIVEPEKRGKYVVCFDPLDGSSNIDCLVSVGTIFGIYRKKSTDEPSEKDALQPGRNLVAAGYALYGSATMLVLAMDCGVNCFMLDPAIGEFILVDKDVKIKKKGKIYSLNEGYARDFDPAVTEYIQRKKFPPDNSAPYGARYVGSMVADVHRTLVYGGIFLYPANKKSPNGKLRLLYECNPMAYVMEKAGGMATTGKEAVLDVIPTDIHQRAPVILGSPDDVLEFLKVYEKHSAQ
# measurement protocol: FBPase inhibition assay (Taketa and Pogell): conversion of fructose-1,6-bisphosphate to fructose-6-phosphate, NADPH formation at 340 nm via coupled reactions
# Format: biochemical
# experimental setup: concentration of inhibitor giving 50% inhibition of FBPase activity; read-out: IC50
Provide only the numeric value, understood in µM.

1) O=C(O)c1ccc(CNC(=O)C(c2ccc(Oc3ccccc3)cc2)N2C(=O)[C@@H]3Cc4ccccc4CN3C(=O)[C@@H]2CC2CCCCC2)cc1 (stereo partly drawn) ... 24
2) Cc1ccc(C(C(=O)NCCc2ccc(O)cc2)N2C(=O)[C@@H]3Cc4ccccc4CN3C(=O)[C@@H]2C)cc1 (stereo partly drawn) ... 37

Now let's try a different one.
Requested field: IC50. Item: N#Cc1ccc(C(C(=O)NCCc2ccc(O)cc2)N2C(=O)[C@@H]3Cc4ccccc4CN3C(=O)[C@@H]2Cc2ccccc2)cc1 (stereo partly drawn)
15

Source: patent US6107274A
